For each of the compounds below, state its pKa.
conditions: basic group
Kindly provide the number alone.

Query: Item under review: COc1ccc(N)cc1C[NH3+] . Reported pKa?
Reply: 5.24

Query: What would you report for CCN1CCCC1CNS(=O)(=O)c1ccc(OC)c(OC)c1OC (stereo not drawn) ?
Reply: 8.7

Query: What would you report for Cc1c[nH]c(C)c1 ?
Reply: 2.04

Query: What would you report for Cn1nncc1Nc1ccccc1 ?
Reply: 1.73

Query: What would you report for CCN(O)CC ?
Reply: 5.62

Query: What would you report for N=C1C=C(N)C(=O)c2ccccc21 ?
Reply: 8.87

Query: What would you report for CC(C)NNC1CCN(C)CC1 ?
Reply: 9.07

Query: What would you report for O=C([O-])[C@@H]1C[C@@H](O)CN1 ?
Reply: 9.64

Query: What would you report for Nc1cnc2ccccc2n1 ?
Reply: 3.93

Query: What would you report for CCc1cc(Cl)c(OC)c(C(=O)NC[C@H]2CCCN2CC)c1[O-] ?
Reply: 9.77

Query: What would you report for O=[N+]([O-])c1[nH]cnc1Cl ?
Reply: -1.3

Query: What would you report for O/N=C/c1ccccn1 ?
Reply: 3.4

Query: What would you report for O=C([O-])c1cc2cc(Cn3ccnc3)ccc2s1 ?
Reply: 6.77

Query: What would you report for O=C([O-])CN(CC(=O)[O-])Cc1ccccc1[O-] ?
Reply: 11.8

Query: What would you report for CC(C)N(CCC(c1ccccc1)c1ccccn1)C(C)C (stereo not drawn) ?
Reply: 10.5

Query: What would you report for CCCNC(=O)[C@H](Cc1c[nH]c[nH+]1)NC(=O)c1cccc(CNCC[NH3+])n1 ?
Reply: 5.9

Query: What would you report for Cc1ccc(NN=C(C#N)C#N)cc1 ?
Reply: -0.83

Query: What would you report for CN(C)C(=S)c1ccccc1 ?
Reply: -2.3

Query: What would you report for Cc1n[nH]c2c(N)cccc12 ?
Reply: 3.18

Query: What would you report for C#CCCCCN ?
Reply: 10.5

Query: What would you report for O=C1CN(C(=O)c2ccccc2)C(=S)N1 ?
Reply: -6.6

Query: What would you report for Cc1cc(-c2ccccn2)nn1C ?
Reply: 4.52

Query: What would you report for CN(C)c1ccc(C(O)c2ccc(N(C)C)cc2)cc1 ?
Reply: 5.61

Query: What would you report for CC(C)(C)c1cccc(C(C)(C)C)n1 ?
Reply: 4.95

Query: What would you report for COc1ccncc1 ?
Reply: 6.65

Query: What would you report for N#CC(C#N)=NNc1ccc(OC(F)(F)F)cc1 ?
Reply: -0.78

Query: What would you report for O=C(/C=C/c1c[nH]cn1)OCCCl ?
Reply: 4.8

Query: What would you report for c1ccc2c(c1)C1CCN2C1 (stereo not drawn) ?
Reply: 7.1

----------
For each of the compounds below, state its pKa.
conditions: basic group
Kindly provide the number alone.

Query: Item under review: CN(C)c1ccc(N2CCOCC2)cc1 . Reported pKa?
Reply: 5.7

Query: What would you report for C#CC(C)(C)NC(C)(C)C#C ?
Reply: 6.45

Query: What would you report for C=C[C@]1(O)CN2CC[C@H]1C[C@@H]2[C@@H](O)c1ccnc2ccc(OC)cc12 ?
Reply: 7.24

Query: What would you report for CN=C1CCCCC1 ?
Reply: 9.43

Query: What would you report for CCCC[NH2+]CC/C(N)=N/O ?
Reply: 3.75

Query: What would you report for CN(C)c1ccc(N)cc1 ?
Reply: 6.37

Query: What would you report for CN1CCN(C(c2ccccc2)c2ccc(Cl)cc2)CC1 (configuration not stated) ?
Reply: 7.81

Query: What would you report for Nc1ccc(Cl)cc1N ?
Reply: 4.3

Query: What would you report for Nc1cccc2ccnnc12 ?
Reply: 3.68

Query: What would you report for Clc1ccc(C2CN2)cc1 (configuration not stated) ?
Reply: 6.18

Query: What would you report for NCCCC[NH3+] ?
Reply: 9.36

Query: What would you report for Nc1ncnc2cn[nH]c12 ?
Reply: 5

Query: What would you report for N/C(CC/C(N)=N/O)=N\O ?
Reply: 5.97

Query: What would you report for Cc1c(Cn2ccnc2)oc2ccc(C(=O)[O-])cc12 ?
Reply: 6.08

Query: What would you report for COC(=O)C1CN2CCC1CC2 (configuration not stated) ?
Reply: 9.4

Query: What would you report for CC1[C@H](N)[C@H]1N (some centres not stated) ?
Reply: 8.98

Query: What would you report for CCC(=O)C(c1ccccc1)(c1ccccc1)[C@@H](C)CN(C)C ?
Reply: 8.07
